# System: ozone
# protocol description: apparent second-order rate constant for reaction with ozone (kapp,O3) (M-1 s-1); higher = faster oxidation by ozone
# condition description: pH 7; temperature: 22 C; OH radical scavenger: tBuOH 80 mM; phosphate 4 mM
parameter: apparent second-order rate constant
Numbers only.

Below, each entry is followed by its recorded apparent second-order rate constant result.
CN(C)CC(c1ccc(O)cc1)C1(O)CCCCC1 (centres undefined) ... 2.09e+06
O=C1C=CC(=C2NC=CNC2=O)C=C1 ... 3.75e+06
CC(C)(C(=O)O)c1ccc(C(O)CCC[N+]2([O-])CCC(C(O)(c3ccccc3)c3ccccc3)CC2)cc1 (centres undefined) [Fexofenadine-N-oxide] ... 11.9
Cc1cccc(C)c1NC(=O)CN1CCN(CC(O)CO)CC1 (centres undefined) ... 570000
COC(=O)C(c1ccccc1Cl)N1CCc2sccc2C1 (centres undefined) ... 335000
Nc1ccc(S(=O)(=O)Nc2nccs2)cc1 ... 9.8e+06
CCOC(=O)C1=C(COCCN)NC(C)=C(C(=O)OC)C1c1ccccc1Cl (centres undefined) ... 9.9e+07
CC(C)(C(=O)O)c1ccc(C(O)CCCN2CCC(C(O)(c3ccccc3)c3ccccc3)CC2)cc1 (centres undefined) [Fexofenadine] ... 2950
Oc1ccc(C(F)(F)F)cc1 ... 1.43e+06
NCCC(Oc1ccc(C(F)(F)F)cc1)c1ccccc1 (centres undefined) ... 42

Below are some compounds; for each one, tell me its apparent second-order rate constant.
1. CCCc1nc2c(C)cc(-c3nc4ccccc4n3C)cc2n1Cc1ccc(-c2ccccc2C(=O)O)cc1
2. CCC1OC(=O)C(C)C(OC2CC(C)(OC)C(O)C(C)O2)C(C)C(OC2OC(C)CC(NC)C2O)C(C)(O)CC(C)CN(C)C(C)C(O)C1(C)O (centres undefined)
3. Cn1c(=O)c2[nH]cnc2n(C)c1=O
4. CC(=O)Nc1ccc(S(=O)(=O)Nc2ccccn2)cc1
5. CC(C)NCC(O)COc1ccc(CC(=O)O)cc1 (centres undefined)

output:
1. 120
2. 10300
3. 885000
4. 947
5. 845

Below are some compounds; for each one, tell me its apparent second-order rate constant.
1. CN1CCN2c3ncc(O)cc3Cc3ccccc3C2C1 (centres undefined) [8-Hydroxymirtazapine]
2. CC12C=CC(=O)C=C1CCC1C2C(O)CC2(C)C1CCC2(O)C(=O)CO (centres undefined)
3. CNCCC(Oc1ccc(C(F)(F)F)cc1)c1ccccc1 (centres undefined)
4. Nc1cc(Cl)c(S(N)(=O)=O)cc1S(N)(=O)=O [4-Amino-6-chlorobenzene-1,3-disulfonamide]
5. c1cncc(C2CCCN2)c1 (centres undefined)

output:
1: 5.4e+07; 2: 104; 3: 1720; 4: 90.5; 5: 6350

---

# System: ozone
# protocol description: apparent second-order rate constant for reaction with ozone (kapp,O3) (M-1 s-1); higher = faster oxidation by ozone
# condition description: pH 7; temperature: 22 C; OH radical scavenger: tBuOH 80 mM; phosphate 4 mM
Classify by measured apparent second-order rate constant: true (1) if it is equal to or exceeds 1000, false (0) if it is smaller.

C1=Cc2ccccc2Nc2ccccc21 [Iminostilbene] ... true (1)
Nc1nc(=O)n(C2CSC(CO)O2)cc1F (centres undefined) [Emtricitabine] ... true (1)
O=C(O)Cc1ccccc1Nc1c(Cl)cc(O)cc1Cl [4'-Hydroxydiclofenac] ... false (0)
NC(=O)N1c2ccccc2C2OC2c2ccccc21 (centres undefined) [Carbamazepine-10,11-epoxide] ... false (0)
COc1c(C)c2c(c(O)c1CC=C(C)CCC(=O)O)C(=O)OC2 [Mycophenolic acid] ... true (1)
CN(C)CCCC1(c2ccc(F)cc2)OCc2cc(C#N)ccc21 (centres undefined) [Citalopram] ... true (1)

input: Identify whether the reported apparent second-order rate constant of the following molecule is 1000 or greater: CNC1(c2ccccc2Cl)CCCCC1=O (centres undefined) [Ketamine]
output: true (1)

input: Identify whether the reported apparent second-order rate constant of the following molecule is 1000 or greater: Cc1cccc(Nc2ccncc2S(=O)(=O)NC(=O)NC(C)C)c1 [Torasemide]
output: true (1)

---

I'd appreciate it if you could supply apparent second-order rate constant values for the items below.
# Tested on: ozone
# protocol description: apparent second-order rate constant for reaction with ozone (kapp,O3) (M-1 s-1); higher = faster oxidation by ozone
# condition description: pH 7; temperature: 22 C; OH radical scavenger: tBuOH 80 mM; phosphate 4 mM
Numbers only.

Below, each entry is followed by its recorded apparent second-order rate constant result.
CC(=O)Nc1c(I)c(NC(C)=O)c(I)c(C(=O)O)c1I [Diatrizoate] ... 230
COc1ccnc(CS(=O)c2nc3ccc(OC(F)F)cc3[nH]2)c1OC (stereo not drawn) [Pantoprazole] ... 108
CCOC(=O)C1=CC(OC(CC)CC)C(NC(C)=O)C(N)C1 (stereo not drawn) [Oseltamivir] ... 6130
COc1ccc(C(C[N+](C)(C)[O-])C2(O)CCCCC2)cc1 (stereo not drawn) [Venlafaxine-N-oxide] ... 168
CCCC1CC(C(=O)NC(C(C)Cl)C2OC(SC)C(O)C(O)C2O)N(C)C1 (stereo not drawn) [Clindamycin] ... 749000
CNCC(O)c1cccc(OS(=O)(=O)O)c1 (stereo not drawn) [Phenylephrine-3-O-sulfate] ... 2890
O=c1ccn(C2OC(CO)C(O)C2(F)F)c(=O)[nH]1 (stereo not drawn) [2'-Deoxy-2',2'-difluorouridine] ... 562
CC(C)NC(=O)NS(=O)(=O)c1cnccc1Nc1cccc(CO)c1 [Hydroxytorasemide] ... 850

Below are some compounds; for each one, tell me its apparent second-order rate constant.
1. CN(C)CCC(c1ccccc1)c1ccccn1 (stereo not drawn) [Pheniramine]
2. CC(=O)Nc1ccc(S(=O)(=O)Nc2nccs2)cc1 [N4-Acetylsulfathiazole]
3. CC(=O)OC1C=CC2C3Cc4ccc(O)c5c4C2(CCN3C)C1O5 (stereo not drawn) [6-Acetylmorphine]
4. CCC1OC(=O)C(C)C(O)C(C)C(OC2OC(C)CC(N(C)C)C2O)C(C)(O)CC(C)CN(C)C(C)C(O)C1(C)O (stereo not drawn) [Desosaminylazithromycin]
5. COc1ccc2c(c1)C13CCCCC1C(C2)N(C)CC3 (stereo not drawn) [Dextromethorphan]

output:
[17600, "1.02e+07", "1.29e+07", 239000, 5580]

Below are some compounds; for each one, tell me its apparent second-order rate constant.
1. CC(N)Cc1ccccc1 (stereo not drawn) [Amphetamine]
2. O=c1nc[nH]c2c1ncn2C1CCC(CO)O1 (stereo not drawn) [Didanosine]
3. CC(=O)Nc1ccc(S(=O)(=O)Nc2nc(C)cc(C)n2)cc1 [N4-Acetylsulfamethazine]

output:
34
4.5
815

Below are some compounds; for each one, tell me its apparent second-order rate constant.
1. CN1CCN2c3ccccc3Cc3ccccc3C2C1 (stereo not drawn) [Mianserin]
2. CCNCC(=O)Nc1c(C)cccc1C [Lidocaine-N-desethyl]

output:
1.94e+06
17000

---

I'd appreciate it if you could supply apparent second-order rate constant values for the items below.
# System: ozone
# protocol description: apparent second-order rate constant for reaction with ozone (kapp,O3) (M-1 s-1); higher = faster oxidation by ozone
# condition description: pH 7; temperature: 22 C; OH radical scavenger: tBuOH 80 mM; phosphate 4 mM
Give bare numbers.

COC(=O)C(C)c1ccc2cc(OC)ccc2c1 (stereo not drawn) [Naproxen methyl ester] ... 278000

Below are some compounds; for each one, tell me its apparent second-order rate constant.
1. Cc1cccc(Nc2ccccc2C(=O)O)c1C [Mefenamic acid]
2. CCCCc1nc(Cl)c(CO)n1Cc1ccc(-c2ccccc2-c2nn[nH]n2)cc1 [Losartan]
3. CC12C=CC(=O)C=C1CCC1C2C(=O)CC2(C)C1CCC2(O)C(=O)CO (stereo not drawn) [Prednisone]
4. CC1CC2C3CCC4=CC(=O)C=CC4(C)C3(F)C(O)CC2(C)C1(O)C(=O)CO (stereo not drawn) [Betamethasone]
5. COC(=O)C1C(OC(=O)c2ccccc2)CC2CCC1N2C (stereo not drawn) [Cocaine]

output:
1.12e+06
198000
324
35.8
3020

Below are some compounds; for each one, tell me its apparent second-order rate constant.
1. CC(=O)OCC(=O)[C@@]1(O)[C@@H](C)C[C@H]2[C@@H]3CCC4=CC(=O)C=C[C@]4(C)[C@@]3(F)[C@@H](O)C[C@@]21C [Betamethasone-21-acetate]
2. Nc1nnc(-c2cccc(Cl)c2Cl)c(N)n1 [Lamotrigine]

output:
24.4
17.1

---

I'd appreciate it if you could supply apparent second-order rate constant values for the items below.
# Tested on: ozone
# protocol description: apparent second-order rate constant for reaction with ozone (kapp,O3) (M-1 s-1); higher = faster oxidation by ozone
# condition description: pH 7; temperature: 22 C; OH radical scavenger: tBuOH 80 mM; phosphate 4 mM

Below, each entry is followed by its recorded apparent second-order rate constant result.
CNCC(c1ccc(O)cc1)C1(O)CCCCC1 (configuration not stated) ... 1.99e+06
Nc1[nH]c(=O)ncc1F ... 24300
O=C(O)COCCN1CCN(C(c2ccccc2)c2ccc(Cl)cc2)CC1 (configuration not stated) ... 359000
CC[C@H]1OC(=O)[C@H](C)[C@@H](O[C@H]2C[C@@](C)(OC)[C@@H](O)[C@H](C)O2)[C@H](C)[C@@H](O[C@@H]2O[C@H](C)C[C@H]([N+](C)(C)[O-])[C@H]2O)[C@](C)(OC)C[C@@H](C)C(=O)[C@H](C)[C@@H](O)[C@]1(C)O [Clarithromycin-N-oxide] ... < 0.401

Below are some compounds; for each one, tell me its apparent second-order rate constant.
1. CC(C)c1c(C(=O)Nc2ccccc2O)c(-c2ccccc2)c(-c2ccc(F)cc2)n1CCC(O)CC(O)CC(=O)O (configuration not stated) [ortho-Hydroxyatorvastatin]
2. C[N+]1([O-])CCN2c3ccccc3Cc3ccccc3C2C1 (configuration not stated) [Mianserin-N-oxide]
3. Nc1ccc(S(=O)(=O)Nc2ccc(O)cn2)cc1 [5-Hydroxysulfapyridine]
4. Clc1ccc(C(c2ccccc2)N2CCNCC2)cc1 (configuration not stated) [1-(4-Chlorobenzhydryl)piperazine]

output:
["1.8e+08", 295000, "1.6e+08", 7700]

Below are some compounds; for each one, tell me its apparent second-order rate constant.
1. O=C(O)CCC(=O)O
2. CCN(CC)CC(=O)Nc1c(C)cccc1C
3. CC12CCC(=O)C=C1CCC1C2C(=O)CC2(C)C1CCC2(O)C(=O)CO (configuration not stated)
4. COc1cc(NS(=O)(=O)c2ccc(N)cc2)nc(OC)n1
5. COc1ccc2c3c1OC1C(O)C=CC4C(C2)N(C)CCC341 (configuration not stated)

output:
1: < 0.401; 2: 185000; 3: 436; 4: 1.53e+06; 5: 1.03e+06

Below are some compounds; for each one, tell me its apparent second-order rate constant.
1. O=C(O)C(c1ccccc1)C1CCCCN1 (configuration not stated)
2. Nc1nc(NC2CC2)c2ncn(C3C=CC(CO)C3)c2n1 (configuration not stated)

output:
1. 139
2. 8.8e+06

Below are some compounds; for each one, tell me its apparent second-order rate constant.
1. CCC1OC(=O)C(C)C(OC2CC(C)(OC)C(O)C(C)O2)C(C)C(OC2OC(C)CC(NC)C2O)C(C)(OC)CC(C)C(=O)C(C)C(O)C1(C)O (configuration not stated)
2. C[N+](C)([O-])CCC(c1ccccc1)c1ccccn1 (configuration not stated) [Pheniramine-N-oxide]

output:
6500
2.4
